Assay target: AKT3 (Homo sapiens, UniProt Q9Y243)
Sequence (Q9Y243 whole entry, species assumed, canonical isoform): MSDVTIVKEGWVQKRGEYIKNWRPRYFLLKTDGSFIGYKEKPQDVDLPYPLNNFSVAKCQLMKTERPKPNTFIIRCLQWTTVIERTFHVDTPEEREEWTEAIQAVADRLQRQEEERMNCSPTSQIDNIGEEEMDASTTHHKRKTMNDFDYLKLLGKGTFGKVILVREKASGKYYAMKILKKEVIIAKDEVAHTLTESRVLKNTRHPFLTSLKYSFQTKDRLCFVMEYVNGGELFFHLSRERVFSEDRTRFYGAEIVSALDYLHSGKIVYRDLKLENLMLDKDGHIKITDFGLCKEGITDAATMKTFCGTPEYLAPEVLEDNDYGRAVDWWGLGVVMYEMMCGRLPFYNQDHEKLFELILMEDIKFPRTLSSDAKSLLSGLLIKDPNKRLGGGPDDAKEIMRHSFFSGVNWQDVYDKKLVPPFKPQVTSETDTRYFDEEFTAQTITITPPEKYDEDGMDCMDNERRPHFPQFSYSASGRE
Measurement notes: Inhibition of AKT isoforms, enzyme IC50
Value kind: IC50 (nM)
Return type: number; implicit unit nM.

Asked: Given the entry `CCn1c(-c2nonc2N)nc2cncc(OCC3CCNCC3)c21` , report its measured IC50.
Given back: 510

Asked: For CCn1c(-c2nonc2N)nc2c(-c3ccccc3)ncc(OCC3CCCNC3)c21.O=C(O)C(F)(F)F (centres unmarked) [Ex 10, trifluoroacetate] then?
Given back: 10

Asked: For Nc1nonc1-c1nc2c(-c3cccc(Cl)c3)ncc(C(=O)NCCNCc3ccccc3)c2n1CC1CC1.O=C(O)C(F)(F)F [Ex 8, trifluoroacetate salt] then?
Given back: 450

Asked: For CCn1c(-c2nonc2N)nc2c(-c3ccccc3)ncc(OCCCN)c21.O=C(O)C(F)(F)F [Ex 13, trifluoroacetate] then?
Given back: 10

Asked: For CCn1c(-c2nonc2N)nc2c(-c3cccc(Cl)c3)ncc(OCCCCN)c21.O=C(O)C(F)(F)F [Ex 12, trifluoroacetate] then?
Given back: 10

====

System: HN5 cells
Measurement notes: Roche Cell Death ELISAPlus apoptosis assay in HN5 cells (median effect and sensitization ratio analysis)
Assay type: cell-based
Condition notes: HN5, 24 h; concentration of the named drug within the 1:2 GW572016:LY294002 combo at Dm; read-out: Dm, drug in combo
Recorded EC50 values for a group of molecules are listed next.
Return type: number; implicit unit µM.

Molecule | EC50, µM
CS(=O)(=O)CCNCc1ccc(-c2ccc3ncnc(Nc4ccc(OCc5cccc(F)c5)c(Cl)c4)c3c2)o1.Cc1ccc(S(=O)(=O)O)cc1.Cc1ccc(S(=O)(=O)O)cc1.O [GW572016, ditosylate monohydrate] | 7.2

Please turn your attention to the following entry.
Asked: Given the entry O=c1cc(N2CCOCC2)oc2c(-c3ccccc3)cccc12 [LY294002, reference compound] , report its measured EC50.
Given back: 14.5

====

Recorded pIC50 values for a group of compounds are listed next.
Assay target: AKT2 (Homo sapiens)
Sequence (P31751 whole entry, species assumed, canonical isoform): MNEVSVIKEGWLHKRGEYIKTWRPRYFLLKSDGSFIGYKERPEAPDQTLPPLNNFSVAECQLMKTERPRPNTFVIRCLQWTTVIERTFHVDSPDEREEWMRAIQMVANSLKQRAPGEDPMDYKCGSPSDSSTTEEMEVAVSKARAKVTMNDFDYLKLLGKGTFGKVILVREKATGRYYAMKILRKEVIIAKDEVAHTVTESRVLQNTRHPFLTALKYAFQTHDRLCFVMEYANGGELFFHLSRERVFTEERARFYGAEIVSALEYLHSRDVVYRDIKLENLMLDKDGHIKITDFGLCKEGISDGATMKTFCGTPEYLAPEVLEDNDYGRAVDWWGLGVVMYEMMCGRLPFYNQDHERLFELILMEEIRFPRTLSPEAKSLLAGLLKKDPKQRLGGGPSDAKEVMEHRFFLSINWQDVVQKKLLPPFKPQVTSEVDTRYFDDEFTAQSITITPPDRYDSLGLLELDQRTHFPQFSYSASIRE
Measurement notes: Inhibition of AKT isoforms, enzyme IC50
Scale for pIC50: -log10 of concentration given in mol/L; no unit attached.

Asked: Given the entry Nc1nonc1-c1nc2c(-c3cccc(Cl)c3)ncc(C(=O)NCCNCc3ccccc3)c2n1CC1CC1.O=C(O)C(F)(F)F [Ex 8, trifluoroacetate salt] , report its measured pIC50.
Given back: 5.10

Asked: For CCn1c(-c2nonc2N)nc2c(-c3ccccc3)ncc(OCCCN)c21.O=C(O)C(F)(F)F [Ex 13, trifluoroacetate] then?
Given back: 7.70

Asked: For CCn1c(-c2nonc2N)nc2cncc(OCC3CCNCC3)c21 [Ex 14] then?
Given back: 6.57

Asked: For CCn1c(-c2nonc2N)nc2c(-c3ccccc3)ncc(OCC3CCCNC3)c21.O=C(O)C(F)(F)F (stereo not shown) [Ex 10, trifluoroacetate] then?
Given back: 7.52

====

Assay target: AKT1 (Homo sapiens)
Sequence (P31749 whole entry, species assumed, canonical isoform): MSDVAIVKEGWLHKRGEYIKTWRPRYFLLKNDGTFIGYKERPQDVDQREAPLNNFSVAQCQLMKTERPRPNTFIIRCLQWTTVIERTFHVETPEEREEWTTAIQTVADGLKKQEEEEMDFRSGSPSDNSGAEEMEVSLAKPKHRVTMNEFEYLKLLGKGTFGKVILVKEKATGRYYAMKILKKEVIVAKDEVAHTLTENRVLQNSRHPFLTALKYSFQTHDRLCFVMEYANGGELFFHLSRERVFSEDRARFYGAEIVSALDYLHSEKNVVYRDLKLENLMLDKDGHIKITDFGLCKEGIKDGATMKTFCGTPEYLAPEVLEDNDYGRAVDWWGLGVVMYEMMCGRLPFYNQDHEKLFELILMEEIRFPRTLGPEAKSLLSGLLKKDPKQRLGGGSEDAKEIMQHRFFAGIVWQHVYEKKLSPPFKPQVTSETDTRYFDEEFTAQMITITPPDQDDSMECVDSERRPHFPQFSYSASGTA
Measurement notes: Inhibition of AKT isoforms, enzyme IC50
Where a name gives a salt, the structure may show the parent alone.
Recorded IC50 values for a group of molecules are listed next.
Remember to quote the unit after the number.

Illustrative cases are given below, each with its answer.
Molecule | IC50
CCn1c(-c2nonc2N)nc2c(-c3ccccc3)ncc(OCCCN)c21.O=C(O)C(F)(F)F [Ex 13, trifluoroacetate] | 40 nM
CCn1c(-c2nonc2N)nc2cncc(OC3CCNCC3)c21 [Ex 9 (tri-HCl salt)] | 50 nM
CCn1c(-c2nonc2N)nc2cncc(OCC3CCNCC3)c21 | 70 nM

Asked: Given the entry CCn1c(-c2nonc2N)nc2c(-c3ccccc3)ncc(OCC3CCCNC3)c21.O=C(O)C(F)(F)F (centres unmarked) [Ex 10, trifluoroacetate] , report its measured IC50.
Given back: 10 nM

Values compiled from patent US20070161665A1.
